# key: entry, value: pIC50
experiment: In vitro inhibitory concentration expressed as thrombin time of the compound; format: functional
// returns pIC50 (minus log10 of molar concentration), number only

Value of measured pIC50 for the entry CC(=O)N[C@H](Cc1ccccc1)C(=O)N1CCC[C@H]1C(=O)N[C@@H](CCCN=C(N)N)B(O)O : 7.26

// Cc1cc(-c2ccccc2)ccc1C(=O)N[C@@H](CCCN=C(N)N)B1O[C@@H]2CC3CC(C3(C)C)[C@]2(C)O1 (stereo not given in full) : pIC50 value = 6.22

Entry under test: COC(=O)NS(=O)(=O)c1ccccc1-c1ccc(C(=O)N[C@@H](CCCN=C(N)N)B2O[C@@H]3CC4CC(C4(C)C)[C@]3(C)O2)c(C)c1 (stereo not given in full) . Its pIC50 was 6.65

Consider Cc1cc(-c2ccccc2S(N)(=O)=O)ccc1C(=O)N[C@@H](CCCN=C(N)N)B1O[C@@H]2CC3CC(C3(C)C)[C@]2(C)O1 (stereo not given in full) . Its measured pIC50 is 6.96

Entry Cc1cc(-c2ccccc2S(=O)(=O)NC(C)(C)C)ccc1C(=O)N[C@@H](CCCN=C(N)N)B1O[C@@H]2CC3CC(C3(C)C)[C@]2(C)O1 (stereo not given in full) ; pIC50 = 6.85

---

Record set of Ki for target or system UniProtKB P00734.
Write the value in nM as a bare number.

Examples with their reported Ki follow.
# Compound, Assayed Target, Unit Name, Ki
rows = [
    ("CC1(C)C2CC1[C@]1(C)OB([C@H](CCCN=C(N)N)NC(=O)c3ccc(-c4ccccc4)cc3[N+](=O)[O-])O[C@@H]1C2 (stereo partly specified)", "UniProtKB P00734", "nM", 4.7),
    ("Cc1cc(-c2ccccc2S(N)(=O)=O)ccc1C(=O)N[C@@H](CCCN=C(N)N)B1O[C@@H]2CC3CC(C3(C)C)[C@]2(C)O1 (stereo partly specified)", "UniProtKB P00734", "nM", 0.92),
    ("CC1(C)C2CC1[C@]1(C)OB([C@H](CCCNC(=N)N)NC(=O)c3cccc(-c4cccc(NS(C)(=O)=O)c4)c3)O[C@@H]1C2 (stereo partly specified)", "UniProtKB P00734", "nM", 3.5),
    ("CC(C)(C)OC(=O)Nc1cccc(-c2ccc(C(=O)N[C@@H](CCCN=C(N)N)B3O[C@@H]4CC5CC(C5(C)C)[C@]4(C)O3)o2)c1 (stereo partly specified)", "UniProtKB P00734", "nM", 30),
    ("CC1(C)C2CC1[C@]1(C)OB([C@H](CCCN=C(N)N)NC(=O)Cc3ccc(-c4ccccc4)cc3)O[C@@H]1C2 (stereo partly specified)", "UniProtKB P00734", "nM", 6.9),
]

Continue with the next compound.
Known value: UniProtKB P00734 Ki of the compound CC1(C)C2CC1[C@]1(C)OB([C@H](CCCNC(=N)N)NC(=O)c3ccc(-c4ccccc4)o3)O[C@@H]1C2 (stereo partly specified) equals 137

---

Data export: pKi values recorded with Prothrombin (Homo sapiens, UniProt P00734).
Value format note: pKi is -log10 of concentration (mol/L); just state the number.

Example compounds with recorded pKi:
# Compound, Experimental Value
measured = [
    ("CC1(C)C2CC1[C@]1(C)OB([C@H](CCCNC(=N)N)NC(=O)c3ccc(-c4ccncc4)cc3)O[C@@H]1C2 (stereo not given in full)", 7.72),
    ("Cc1cc(-c2ccccc2)ccc1C(=O)N[C@@H](CCCN=C(N)N)B1O[C@@H]2CC3CC(C3(C)C)[C@]2(C)O1 (stereo not given in full)", 9.38),
    ("Cc1cc(-c2ccccc2)ccc1C(=O)N[C@@H](CCCCN)B1O[C@@H]2CC3CC(C3(C)C)[C@]2(C)O1 (stereo not given in full)", 7.59),
    ("CC(C)(C)OC(=O)Nc1cccc(-c2cccc(C(=O)N[C@@H](CCCN=C(N)N)B3O[C@@H]4CC5CC(C5(C)C)[C@]4(C)O3)c2)c1 (stereo not given in full)", 8.08),
]

Let us examine a further case.
Hey, Prothrombin (Homo sapiens, UniProt P00734) data for CC1(C)C2CC1[C@]1(C)OB([C@H](CCCN=C(N)N)NC(=O)c3ccc(-c4ccccc4)cc3)O[C@@H]1C2 (stereo not given in full) : pKi came out at 9.03
